target: STING protein (Homo sapiens (Human), UniProt Q86WV6, H232R); experiment: Cell based reporter assay of IRF activation (IRF-luciferase), THP1-dual-KI R232; settings: read-out: THP1-dual-KI R232_IRF(Luciferase)_Activity Maximum measured (%)
Sequence (Q86WV6 whole entry H232R): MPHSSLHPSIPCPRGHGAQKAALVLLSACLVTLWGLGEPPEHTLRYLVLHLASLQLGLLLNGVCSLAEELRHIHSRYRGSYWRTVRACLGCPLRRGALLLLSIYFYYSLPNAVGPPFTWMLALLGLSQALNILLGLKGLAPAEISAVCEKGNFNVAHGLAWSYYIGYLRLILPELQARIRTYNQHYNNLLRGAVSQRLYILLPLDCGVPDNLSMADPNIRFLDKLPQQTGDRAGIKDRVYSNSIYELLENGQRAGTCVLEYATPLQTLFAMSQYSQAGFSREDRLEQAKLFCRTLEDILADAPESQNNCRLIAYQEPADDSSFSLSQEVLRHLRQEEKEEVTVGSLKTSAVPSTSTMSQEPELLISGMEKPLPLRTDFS

>  <chemicalString>
O=C(O)Cn1c2ccccc2c(=O)c2ccc(Cl)c(Oc3nccc4ccccc34)c21

>  <Emax>
< 5%

$$$$
>  <chemicalString>
Cc1ccc(-c2ccc3c(=O)c4ccc(Cl)c(Cl)c4n(CC(=O)O)c3c2)cc1

>  <Emax>
5 to 25%

$$$$
>  <chemicalString>
CC(C)c1ccc(-c2ccc3c(c2)c(=O)c2ccc(Cl)c(Br)c2n3CC(=O)O)cc1

>  <Emax>
< 5%

$$$$
>  <chemicalString>
O=C(O)Cn1c2cc(Nc3ccc(F)cc3F)ccc2c(=O)c2ccc(Cl)c(Cl)c21

>  <Emax>
> 50%

$$$$
>  <chemicalString>
CC(=O)COc1c(Cl)ccc2c(=O)c3ccccc3n(CC(=O)O)c12

>  <Emax>
< 5%

$$$$
>  <chemicalString>
COc1c(Cl)ccc2c(=O)c3ccc(-c4ccoc4)cc3n(CC(=O)O)c12

>  <Emax>
> 50%

$$$$
>  <chemicalString>
O=C(O)Cn1c2cc(-c3cccc(Cl)c3)ccc2c(=O)c2ccc(Cl)c(Cl)c21

>  <Emax>
< 5%

$$$$
>  <chemicalString>
CNc1ccc2c(=O)c3ccc(Cl)c(OC)c3n(CC(=O)O)c2c1

>  <Emax>
> 50%

$$$$
>  <chemicalString>
CSc1c(Cl)ccc2c(=O)c3ccc(Br)cc3n(CC(=O)O)c12

>  <Emax>
> 50%

$$$$
>  <chemicalString>
COc1ccccc1Nc1ccc2c(=O)c3ccc(Cl)c(OC)c3n(CC(=O)O)c2c1

>  <Emax>
> 50%

$$$$
>  <chemicalString>
CC(C)c1ccc2c(=O)c3ccc(Cl)c(Cl)c3n(CC(=O)NS(C)(=O)=O)c2c1

>  <Emax>
> 50%

$$$$
>  <chemicalString>
CC(C)c1ccc2c(=O)c3ccc(Br)c(Cl)c3n(CC(=O)O)c2c1

>  <Emax>
25 to 50%

$$$$
>  <chemicalString>
CCSc1ccc2c(=O)c3ccc(Cl)c(OC)c3n(CC(=O)O)c2c1

>  <Emax>
> 50%

$$$$
>  <chemicalString>
COc1c(Cl)ccc2c(=O)c3ccc(-c4ccc(N)cc4)cc3n(CC(=O)O)c12

>  <Emax>
> 50%

$$$$
>  <chemicalString>
Cc1ccc(S(=O)(=O)NC(=O)Cn2c3cc(C(C)C)ccc3c(=O)c3ccc(Cl)c(Cl)c32)cc1

>  <Emax>
< 5%

$$$$
>  <chemicalString>
COc1c(Cl)ccc2c(=O)c3ccc(Nc4cnccn4)cc3n(CC(=O)O)c12

>  <Emax>
< 5%

$$$$
>  <chemicalString>
O=C(O)Cn1c2cc(C3CCCCC3)ccc2c(=O)c2ccc(Cl)c(Cl)c21

>  <Emax>
25 to 50%

$$$$

---

target: mSTING (Mus musculus); experiment: Radiometric filtration binding competition assay, mSTING
pIC50: −log10 of the molar value.
observedProperty: pIC50

>  <compound>
C=CCOc1c(Cl)ccc2c(=O)c3ccccc3n(CC(=O)O)c12

>  <observedProperty>
pIC50

>  <recordedResult>
4.00 to 4.70

$$$$
>  <compound>
O=C(O)Cn1c2cc(N3CCCCC3)ccc2c(=O)c2ccc(Cl)c(Br)c21

>  <observedProperty>
pIC50

>  <recordedResult>
3.52 to 4.00

$$$$
>  <compound>
O=C(O)Cn1c2cc(Nc3ccc(F)cc3)ccc2c(=O)c2ccc(Cl)c(Cl)c21

>  <observedProperty>
pIC50

>  <recordedResult>
> 4.70

$$$$
>  <compound>
CSc1c(Cl)ccc2c(=O)c3ccc(Nc4cnccn4)cc3n(CC(=O)O)c12

>  <observedProperty>
pIC50

>  <recordedResult>
> 4.70

$$$$
>  <compound>
Cc1cccc(-c2ccc3c(=O)c4ccc(Cl)c(Cl)c4n(CC(=O)O)c3c2)c1

>  <observedProperty>
pIC50

>  <recordedResult>
> 4.70

$$$$
>  <compound>
O=C(O)Cn1c2cc(C3CCCCC3)ccc2c(=O)c2ccc(Cl)c(Br)c21

>  <observedProperty>
pIC50

>  <recordedResult>
> 4.70

$$$$
>  <compound>
COc1c(Cl)ccc2c(=O)c3ccc(C4CCCOC4)cc3n(CC(=O)O)c12 (centres unmarked)

>  <observedProperty>
pIC50

>  <recordedResult>
4.00 to 4.70

$$$$
>  <compound>
COc1c(Cl)ccc2c(=O)c3cc(Br)c(C(C)C)cc3n(CC(=O)O)c12

>  <observedProperty>
pIC50

>  <recordedResult>
3.52 to 4.00

$$$$

---

Recorded measurements of pIC50, one per entry
biological target: hSTING-CTD (Homo sapiens (Human))
Sequence (Q86WV6 135-379): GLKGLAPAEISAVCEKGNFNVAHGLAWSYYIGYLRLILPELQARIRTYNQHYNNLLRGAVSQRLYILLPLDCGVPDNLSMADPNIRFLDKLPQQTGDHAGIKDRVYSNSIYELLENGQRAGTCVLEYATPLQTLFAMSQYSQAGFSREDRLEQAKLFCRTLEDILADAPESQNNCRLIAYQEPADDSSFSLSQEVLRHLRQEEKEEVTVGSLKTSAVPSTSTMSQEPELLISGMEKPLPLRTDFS
pIC50: −log10 of the molar value.
observedProperty: pIC50

>  <compound>
O=C(O)Cn1c2cc(-c3ccccc3)ccc2c(=O)c2ccc(Cl)c(Cl)c21 [Compound 65]

>  <recordedResult>
> 4.00

$$$$
>  <compound>
COc1ccccc1CCc1ccc2c(c1)c(=O)c1ccccc1n2CC(=O)O [Compound 42]

>  <recordedResult>
3.00 to 3.30

$$$$
>  <compound>
O=C(O)Cn1c2ccccc2c(=O)c2ccc(CCc3ccccc3)cc21 [Compound 26]

>  <recordedResult>
3.00 to 3.30

$$$$
>  <compound>
O=C(O)Cn1c2cc(C3=CCCCC3)ccc2c(=O)c2ccc(Cl)c(Cl)c21 [Compound 116]

>  <recordedResult>
> 4.00

$$$$
>  <compound>
Cc1ccc2c(=O)c3cc(-c4ccc(C(C)C)cc4)ccc3n(CC(=O)O)c2c1 [Compound 77]

>  <recordedResult>
3.30 to 4.00

$$$$
>  <compound>
CSc1ccc2c(=O)c3ccc(SC)c(Cl)c3n(CC(=O)O)c2c1 [Compound 46]

>  <recordedResult>
< 3.00

$$$$
>  <compound>
CC(C)c1cccc2c1c(=O)c1ccc(Cl)c(Cl)c1n2CC(=O)O [Compound 55]

>  <recordedResult>
3.00 to 3.30

$$$$
>  <compound>
CC(C)c1ccc(-c2ccc3c(=O)c4ccc(Cl)c(Cl)c4n(CC(=O)O)c3c2)cc1 [Compound 91]

>  <recordedResult>
> 4.00

$$$$
>  <compound>
Cc1ccc2c(=O)c3ccc(Cl)c(Cl)c3n(CC(=O)O)c2c1 [Compound 29]

>  <recordedResult>
3.30 to 4.00

$$$$

---

target: STING protein (Homo sapiens (Human), UniProt Q86WV6, H232R); assay: Cell based reporter assay of IRF activation (IRF-luciferase), THP1-dual-KI R232; conditions: read-out: THP1-dual-KI R232_IRF(Luciferase)_Activity Maximum measured (%)

>  <chemicalString>
CN(Cc1ccccc1)c1c(Cl)ccc2c(=O)c3ccccc3n(CC(=O)O)c12

>  <Emax>
5 to 25%

$$$$
>  <chemicalString>
COc1c(Cl)c(O)cc2c(=O)c3ccccc3n(CC(=O)O)c12

>  <Emax>
< 5%

$$$$
>  <chemicalString>
CCCOc1c(Cl)ccc2c(=O)c3ccccc3n(CC(=O)O)c12

>  <Emax>
5 to 25%

$$$$
>  <chemicalString>
CCOc1c(Cl)ccc2c(=O)c3ccc(CC)cc3n(CC(=O)O)c12

>  <Emax>
> 50%

$$$$
>  <chemicalString>
COc1c(Cl)ccc2c(=O)c3cc(N)c(C(C)C)cc3n(CC(=O)O)c12

>  <Emax>
< 5%

$$$$
>  <chemicalString>
O=C(O)Cn1c2ccccc2c(=O)c2ccc(Cl)c(OCCO)c21

>  <Emax>
< 5%

$$$$
>  <chemicalString>
COc1c(Cl)ccc2c(=O)c3ccc(Nc4ccc(Cl)cc4)cc3n(CC(=O)O)c12

>  <Emax>
25 to 50%

$$$$
>  <chemicalString>
CCOC(=O)Cn1c2cc(C)ccc2c(=O)c2ccc(Cl)c(OCC)c21

>  <Emax>
5 to 25%

$$$$
>  <chemicalString>
CSc1c(Cl)ccc2c(=O)c3ccc(Nc4ncccn4)cc3n(CC(=O)O)c12

>  <Emax>
> 50%

$$$$
>  <chemicalString>
CC(C)Sc1c(Cl)ccc2c(=O)c3ccc(C(C)(C)C)cc3n(CC(=O)O)c12

>  <Emax>
25 to 50%

$$$$
>  <chemicalString>
O=C(O)Cn1c2ccccc2c(=O)c2ccc(Cl)c(OCCCO)c21

>  <Emax>
< 5%

$$$$
>  <chemicalString>
O=C(O)Cn1c2cc(NC3CCOCC3)ccc2c(=O)c2ccc(Cl)c(Cl)c21

>  <Emax>
< 5%

$$$$
>  <chemicalString>
CCc1ccc2c(=O)c3ccc(Cl)c(OC)c3n(CC(=O)O)c2c1

>  <Emax>
> 50%

$$$$
>  <chemicalString>
O=C(O)Cn1c2cc(NC3CCCCCC3)ccc2c(=O)c2ccc(Cl)c(Cl)c21

>  <Emax>
> 50%

$$$$
>  <chemicalString>
COc1cc2c(=O)c3ccc(Cl)c(OC)c3n(CC(=O)O)c2cc1C(C)C

>  <Emax>
5 to 25%

$$$$
>  <chemicalString>
O=C(O)Cn1c2cc(Nc3ncccn3)ccc2c(=O)c2ccc(Cl)c(Cl)c21

>  <Emax>
> 50%

$$$$
>  <chemicalString>
COc1c(Cl)ccc2c(=O)c3cc(Br)c(C(C)C)cc3n(CC(=O)O)c12

>  <Emax>
> 50%

$$$$
>  <chemicalString>
O=C(O)Cn1c2cc(Cl)ccc2c(=O)c2ccc(Nc3ccccc3)cc21

>  <Emax>
< 5%

$$$$
